System: UACC-62 melanoma
Assay: NCI tumour cell line growth inhibition, 48 h
# TGI per entry
QUANTITY_KIND: TGI

INSERT INTO assay_data (molecule, assayed_system, quantity_kind, endpoint_value) VALUES
  ('CS(=O)(=O)c1nc(N)nc2nc[nH]c12', 'UACC-62 melanoma', 'TGI', '> 100 µM'),
  ('CC(=O)O[C@H]1C(=O)[C@@]2(C)C(C(OC(=O)c3ccccc3)[C@]3(O)CC(OC(=O)C(O)C(NC(=O)c4ccccc4)c4ccc(F)cc4)C(C)=C1C3(C)C)[C@]1(OC(C)=O)CO[C@@H]1C[C@@H]2O (stereo partly drawn)', 'UACC-62 melanoma', 'TGI', '> 10 µM'),
  ('C[C@]12CCC3c4ccc(OC(=O)c5ccccc5)cc4CC[C@H]3C1CC[C@@H]2OC(=O)C12OC1CCC2=O (stereo partly drawn)', 'UACC-62 melanoma', 'TGI', '38.4 µM'),
  ('COc1cc(C(=O)C/C(CCC(=O)Nc2ccccc2[N+](=O)[O-])=N\NC(=O)C(N)=O)ccc1O', 'UACC-62 melanoma', 'TGI', '> 100 µM'),
  ('CC[O-].CC[O-].[O-]c1ccccc1C=Nc1ccccc1.[O-]c1ccccc1C=Nc1ccccc1.[Ti+4]', 'UACC-62 melanoma', 'TGI', '> 100 µM'),
  ('COC(=O)[C@H](CCSC)NC(=O)c1ccc(CNC(=O)/C=C/c2cccc(Oc3ccccc3)c2)cc1', 'UACC-62 melanoma', 'TGI', '38.2 µM'),
  ('COC(=O)/C=C\c1ccc2c(c1)CC1(C2)Cc2ccc(/C=C/C(=O)OC)cc2C1 (stereo not drawn)', 'UACC-62 melanoma', 'TGI', '> 31.6 µM'),
  ('N#Cc1c(C#N)c(-c2cccc([N+](=O)[O-])c2)n(-c2ccccc2)c1N', 'UACC-62 melanoma', 'TGI', '> 100 µM');

* * *

Tested on: DMS 273 small cell lung
Assay: NCI tumour cell line growth inhibition, 48 h
QUANTITY_KIND: TGI

INSERT INTO assay_data (compound, endpoint_value) VALUES
  ('O=c1c(O)c(-c2ccc(O)c(O)c2)oc2cc(O)ccc12', '28.2 µM'),
  ('O=C(O)C(Cc1cccs1)NC(=O)C(F)(F)F (stereo not given)', '> 100 µM'),
  ('CC(C#N)c1cn(S(=O)(=O)c2ccccc2)c2ccccc12 (stereo not given)', '> 100 µM'),
  ('CSc1ccc(-c2cn3ccsc3n2)c(O)c1', '> 100 µM'),
  ('C/C(=N\O)c1sc(-n2nc(-c3ccccc3)cc2-c2ccccc2)nc1C', '49.6 µM'),
  ('COc1ccccc1/C=C/C(=O)c1sc(-c2cccnc2)nc1C', '> 100 µM'),
  ('CCSC(=Nc1ccccc1)SC', '> 100 µM'),
  ('NC1=NC(=O)N2CC12 (stereo not given)', '> 100 µM'),
  ('COC1=CC(=O)c2ccc(C(C)C)cc2C1(C)C1=NC(C)(C)CO1 (stereo not given)', '> 100 µM'),
  ('CS(=O)(=O)c1nc(N)nc2nc[nH]c12', '> 100 µM');

* * *

List of TGI values.
System: MALME-3M melanoma
Assay: NCI tumour cell line growth inhibition, 48 h
QUANTITY_KIND: TGI (µM)

INSERT INTO results (molecule, measurement_units, value_modifier, endpoint_value) VALUES
  ('CC1(C)C(O)c2ccccc2OC1N1CCN(C2Oc3ccccc3C(O)C2(C)C)CC1 (stereo not given)', 'µM', '>', 100),
  ('C=C(Cl)C(C)(Cl)CCC(Cl)C(C)(C)Cl (stereo not given)', 'µM', '>', 100),
  ('CCC1CCc2nc3sc(C(=O)Nc4ccccc4F)c(N)c3cc2C1 (stereo not given)', 'µM', '>', 100),
  ('COc1cc2[nH]c(C(=O)c3cc(OC)c(OC)c(OC)c3)c(N)c2cc1C#CCO', 'µM', '>', 100),
  ('C/C(=C\c1ccn(-c2ccc(N)c(C(F)(F)F)c2)n1)[C@@H]1C[C@@H]2O[C@]2(C)CCC[C@H](C)[C@H](O)[C@@H](C)C(=O)C(C)(C)[C@@H](O)CC(=O)O1', 'µM', '=', 16.7),
  ('CC(=O)N1NC(c2ccccc2)=CC(=O)/C1=C/C(=O)c1ccccc1', 'µM', '>', 100),
  ('COc1cccc(/C=C(/C(=O)O)c2cc(OC)c(OC)c(OC)c2)c1', 'µM', '>', 100),
  ('Oc1c(Br)cc(Br)cc1CN(Cc1cc(Br)cc(Br)c1O)C1CCCCC1', 'µM', '=', 59.8),
  ('CCN(Cc1ccc(F)cc1)c1ccc(CO)c(Cl)c1', 'µM', '=', 35.9),
  ('CCCCCCNC(=O)c1cc(NCc2cc(OC)ccc2OC)ccc1O', 'µM', '=', 55.9);
